This collection of values is drawn from paper PMC11808297.

System: PLC/PRF/5
Test: Anti-proliferation assay
Type: cell-based
Details: Homo sapiens, PLC-PRF-5, 48 h, read-out: IC50 against proliferation, PLC/PRF/5
Readings of IC50 for the listed molecules
Measurement Name: IC50

>>> df
                                   molecule  observed_result
0  CC(C)C[C@H](NC(=O)NCc1cn(-c2ccccc2C(=O)OCn2cc(F)c(=O)[nH]c2=O)nn1)C(=O)NO [Compound 3]         > 100 µM
1  CC(C)C[C@H](NC(=O)[C@@H](O)[C@H](N)Cc1ccccc1)C(=O)O [Bestatin, reference compound]         > 100 µM

====

Assay: In vivo PK study in Sprague Dawley rats
Details: male, rat, plasma, po, 50 mg/kg
Measurement Name: AUC(0-inf) (ng·h/mL)

                                   molecule  measurement_name  unit_abbrev  observed_result
0  CC(C)C[C@H](NC(=O)NCc1cn(-c2ccccc2C(=O)OCn2cc(F)c(=O)[nH]c2=O)nn1)C(=O)NO [Compound 3]        AUC(0-inf)      ng·h/mL              510

====

Molecular target: APN from porcine kidney (Sus scrofa, UniProt P15145)
Sequence (P15145 1-963): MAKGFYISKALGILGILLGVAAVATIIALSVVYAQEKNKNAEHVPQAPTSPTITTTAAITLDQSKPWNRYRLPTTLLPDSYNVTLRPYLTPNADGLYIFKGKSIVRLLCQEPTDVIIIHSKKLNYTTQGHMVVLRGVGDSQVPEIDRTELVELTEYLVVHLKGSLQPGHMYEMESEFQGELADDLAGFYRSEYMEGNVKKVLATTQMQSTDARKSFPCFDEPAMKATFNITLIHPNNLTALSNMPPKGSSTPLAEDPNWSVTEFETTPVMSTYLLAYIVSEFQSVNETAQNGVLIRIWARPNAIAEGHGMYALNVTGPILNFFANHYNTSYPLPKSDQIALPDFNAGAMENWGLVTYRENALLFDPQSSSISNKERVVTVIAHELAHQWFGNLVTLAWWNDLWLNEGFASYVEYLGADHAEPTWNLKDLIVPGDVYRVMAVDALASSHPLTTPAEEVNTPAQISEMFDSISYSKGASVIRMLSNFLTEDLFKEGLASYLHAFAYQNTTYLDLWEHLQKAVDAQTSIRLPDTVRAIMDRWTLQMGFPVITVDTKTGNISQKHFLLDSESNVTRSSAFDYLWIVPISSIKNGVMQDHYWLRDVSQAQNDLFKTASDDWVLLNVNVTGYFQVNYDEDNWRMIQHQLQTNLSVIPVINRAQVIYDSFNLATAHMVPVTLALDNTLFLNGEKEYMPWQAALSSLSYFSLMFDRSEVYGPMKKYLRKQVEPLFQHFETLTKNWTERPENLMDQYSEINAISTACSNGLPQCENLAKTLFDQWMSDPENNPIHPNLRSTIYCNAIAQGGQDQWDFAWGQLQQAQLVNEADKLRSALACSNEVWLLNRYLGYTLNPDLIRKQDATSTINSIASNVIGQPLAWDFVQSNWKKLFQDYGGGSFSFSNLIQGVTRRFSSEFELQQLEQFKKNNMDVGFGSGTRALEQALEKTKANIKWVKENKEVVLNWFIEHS
Measurement Name: IC50

>>> print(df.to_string())
                           structure_string  observed_result
0  CC(C)C[C@H](NC(=O)NCc1cn(-c2ccccc2C(=O)OCn2cc(F)c(=O)[nH]c2=O)nn1)C(=O)NO           500 nM

====

Test: In vivo PK study in Sprague Dawley rats
Conditions: male, rat, plasma, po, 50 mg/kg
Measurement Name: Tmax (min)

                           structure_string  observed_result
0  CC(C)C[C@H](NC(=O)NCc1cn(-c2ccccc2C(=O)OCn2cc(F)c(=O)[nH]c2=O)nn1)C(=O)NO               25

====

Assay: In vivo PK study in Sprague Dawley rats
Details: male, rat, plasma, iv, 10 mg/kg
Measurement Name: half-life (min)

>>> df
                                   compound  measurement_name  unit_abbrev  observed_result
0  CC(C)C[C@H](NC(=O)NCc1cn(-c2ccccc2C(=O)OCn2cc(F)c(=O)[nH]c2=O)nn1)C(=O)NO [Compound 3]         half-life          min               52

====

Tested on: MDA-MB-231
Assay: Anti-proliferation assay
Type: cell-based
Details: Homo sapiens, MDA-MB-231, 48 h, read-out: IC50 against proliferation, MDA-MB-231
pIC50: −log10 of the molar value.
Readings of pIC50 for the listed compounds
Measurement Name: pIC50

                                   compound  measurement_name  observed_result
0  CC(C)C[C@H](NC(=O)[C@@H](O)[C@H](N)Cc1ccccc1)C(=O)O [Bestatin, reference compound]             pIC50           < 4.00
1  CC(C)C[C@H](NC(=O)NCc1cn(-c2ccccc2C(=O)OCn2cc(F)c(=O)[nH]c2=O)nn1)C(=O)NO [Compound 3]             pIC50           < 4.00

====

Test: Metabolic stability in mouse liver microsomes
Assay type: in vitro ADME
Details: CD-1, mouse, liver microsomes
Measurement Name: half-life at 1 μM

                                   molecule  observed_result
0  CC(C)C[C@H](NC(=O)NCc1cn(-c2ccccc2C(=O)OCn2cc(F)c(=O)[nH]c2=O)nn1)C(=O)NO [Compound 3]           1.58 h
